B1: Subtilisin-chymotrypsin inhibitor-2A, P01053 (parent)
chain: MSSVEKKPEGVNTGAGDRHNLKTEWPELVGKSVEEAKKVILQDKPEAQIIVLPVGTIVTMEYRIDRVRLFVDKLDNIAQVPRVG

# Variants of: B1
# CONDITION DESCRIPTION: Hordeum vulgare; pH 3.5; Thermal; DSC; MES 450 mM; reversible: yes; structure 2CI2; whole UniProt chain shown
Property: Tm; scope: individual variants
Answer format: numeric, °C implied, no suffix.

Previously resolved entries follow.
# MUTATIONS, Tm (°C)
data = [
    ("V67A", 45.3),
    ("I49A", 52.5),
    ("I77A", 50.3),
    ("I40V", 67.3),
    ("L69A", 52.3),
]

Moving on to the next variant.
Input: Recorded Tm of I49V , please.
Output: 69.1

Origin of values: FireProtDB (doi:10.1021/bi00093a001)
